Provide the recorded folding stability dG unfold for the entries that follow.
assay: folding stability dG unfold from chymotrypsin proteolysis; higher = more stable
Expressed in kcal/mol, but write only the number.

Can you share its folding stability dG unfold? I mean this sequence: SAGGSAGGSAGGLLEIELPSRRILVELKLELKDGKLVKLEIKVKYEGREPEPLTSPEYKSAGGSAGGSAGGS [r10_1043_TrMRF]
1.94

One more sequence: SAGFVMIKIELENPGNGKERELSIIIPYKSQEDARHIAEEIARELAKNGWKIKKIEVMVMPIPPPPDDPSAG [r5_660_TrROS]
5.29

One more sequence: SAGGSAGGLRVVKPEKVVEAIRKIRELVPKNYLVIVDSIEVREEGGKLYVDIPVLVLPVPPELLSAGGSAGG [r6_819_TrMRF]
1.79

One more sequence: SGMIKVSVEEKELKDGTKLYTITVEHPDPEVAKETAEKIVKEKFPKNYKVETKLTESGKVIAPVIVPKKKSA [r9_646_JUSTAS]
1.1

One more sequence: SAGGSAGGSAGGGERRRVLHINPEDGYIQRMEFDPDDGEPTGSETVPFKSPEDALDKLIDSAGGSAGGSAGG [r7_105_TrROS]
0.342

One more sequence: SAGDSVVIPFRLPPENLSPEELLEWIIDEVKEAAKAGLPHKVTIQVPYPGKPWYITIDPKNGEIEIVPSAGG [r19_204_TrROS]
1.66

One more sequence: SAMPKPALTIEIPLPNGQTVRIDVYYDPETGTYTVNVTRTLPNGEPFTRTYTVESPEEAIKNIEVTDFGSAG [r14_749_TrMRF]
3.18

One more sequence: SAGGSAGGSAGGSPPNMEPVETQEYQIGNDFIIKVDTYRMPDPDMYFVDIEITPDALKASAGGSAGGSAGGS [r4_163_TrROS]
1.82

One more sequence: SAGGSAGGMTTVTYDPSTGVTTVLTPKTDPTSDETSVVTTTVTLPTSPSGGGGTATTTTTTTASSAGGSAGG [r6_952_JUSTAS]
1.39

One more sequence: SAGGSAGGSAGGDKDDKPPVRTVTVMHMFFDENGWLVKFDITFTANGQIEIDWGPVPLPSAGGSAGGSAGGS [r10_682_TrROS]
3.8

One more sequence: SFGMIEIENEAFLPDGFRFKVEVWVMVDPDNGNLMIMLDIEIEPIPPPPPPPEPKPVKDKNGDWKPANDMSA [r9_898_TrROS]
3.79

One more sequence: SAGITIIIRGPDAKEAAEDIAKELLKNGFKRPITVHVLDPDGKPWYRIKIQFDPKNPGKIKVKVEPYDSAGG [r19_85_TrROS]
3.66

One more sequence: SAGGMIVIEKEEDGFYRITIRNKETGEEVEEIPISKEELEELLKEAEENMSLEEIAEKLGLEIEIEKVSAGG [r13_836_TrROS_Hall]
0.971

One more sequence: SAGGSAGGSAGMVITKDPNGNYTVDLVLPDGTPLDSGTITLEEVEKILKERGIPLKEIFGSAGGSAGGSAGG [r11_521_JUSTAS]
0.543

One more sequence: SAMRAAVLAAAEEITAHPEFEAVGISPDGTFLFRNPATGKVYRIRLEAEDDGEGVIVRVPSIEPLDAPDSAG [r14_20_TrMRF]
1.92

One more sequence: SAGGSAGGSAMKYKVTVTTTPPDGTTTTTPTVVDFKSKEEIEEYVKKKAPKDTKVEVEIEPESAGGSAGGSA [r18_60_JUSTAS]
0.0584

One more sequence: SAGGRKITINWNPNSGEIKVKIIWPDGEKEELPIPVPEGHDSPRQFADELKDNAQERFGEPVKIEITSAGGS [r8_166_TrROS]
-0.793

One more sequence: SAGGEEVKTIKVTLAFYNPETGELVAEVEATATLVDGKLVLTTTVTFRPAPAGEPVTVTVTVVEPEESAGGS [r16_327_TrROS_Hall]
3.63

One more sequence: SMKIKIKVETNPNGEKKIEIEIELKEEDIEFDEGMTLEERKEKLRELAEELAKKLKEEGKEVKIVEIEVESA [r9_751_TrROS_Hall]
2.27

One more sequence: SAGGSMVKVEVHYDPERDLVLVTVEAPDDPELVDEFVERMKKLGAKRVEVFRFPEDGKVRILVEIGSAGGSA [r2_358_TrMRF]
4.68

One more sequence: SAGGSAGGSAGGEVIEIELPGKTKEEIEEAIKKLPENYKIEIKKDENGRIRVRIFRKEDLSAGGSAGGSAGG [r7_662_TrROS_Hall]
1.5

One more sequence: SAGGATLTEPETTVEVRFEKLPDGTVIRTTTTITPEGVTTTTEPVPVPPSPGASSEEELEALRAAAAAASAG [r5_272_JUSTAS]
1.51

One more sequence: SAGGMVLEVEFTGPLSEVEAFIEELKAKPGVELLSVEIEVKPLPGPPVRYRVKLEVKIYDPENPVLLSAGGS [r8_374_JUSTAS]
3.07

One more sequence: SAGGSAGGSSMPTMTKVGDTWLYYDPSTDIKRPATVTVDDGKITIDGDSGTTVYDGDLVIETSSAGGSAGGS [r12_683_JUSTAS]
-0.313

One more sequence: SAKKVEVKKIKVEVTFYDKNGKKVKKKKATITVVKVDGKYYVTIYDENTGKKYVFEFPSLEEAKKALKKSAG [r14_508_TrROS_Hall]
3.09

One more sequence: SAGGSAGGSAGGHMVMITITIPIKKGAEIKFGDWDIKVPPGEQIQITIMIPVPPPDDDKSAGGSAGGSAGGS [r10_949_TrROS]
2.8

One more sequence: SAGGSAGGSAGEEEVEPPPEVVVRVRFFDKDGKEVLEVEMSLDELRALAEAGLVEVELEPSAGGSAGGSAGG [r11_159_TrROS_Hall]
2.63

----------
Provide the recorded folding stability dG unfold for the entries that follow.
assay: folding stability dG unfold (combined trypsin and chymotrypsin); higher = more stable
Expressed in kcal/mol, but write only the number.

Can you share its folding stability dG unfold? I mean this sequence: SAGMKVTTKTYTLTLTLPDGTRELKVTFTTPPDGYTATITDPNSSKVITLPFSSEEEARSAIEAIAARLSAG [r5_480_JUSTAS]
2.62

One more sequence: SALPLPSSAKVELEWELVGVDPGSKGAKVYYRRTLKVTFPTGSLTVTYLVEYDPETGTFSWSITSVSPESAG [r14_293_TrMRF]
5.38

One more sequence: SAGGALILLFPHPESRTVTALFVHPDGGSETIPFPVPESIDSLEEVADRLLREARERFPVPVEVVVASAGGS [r8_166_TrMRF]
1.2

One more sequence: SAGGKKKKVKKIKVKVKIKLKNGEEVTITEAYVLPDGTVIIKVEVTKPDGSKETKTFTIPLKDIEIESAGGS [r16_498_TrROS_Hall]
3.34

One more sequence: SAGGMELPPEVKTIAEKLEAEGYDVLAVPVGDSYVIAVDGKVAATPEEFEKLKKIPGVKKLITIDLPSAGGS [r16_275_TrMRF]
0.541

One more sequence: SAGGSAGGSAGGSKPKMYILKIKIKVEVKYDKETNEIVEEEIEIEIEIIEVKPGEKLELSAGGSAGGSAGGS [r4_175_TrROS_Hall]
2.52

----------
Provide the recorded folding stability dG unfold for the entries that follow.
assay: folding stability dG unfold from chymotrypsin proteolysis; higher = more stable
Expressed in kcal/mol, but write only the number.

Can you share its folding stability dG unfold? I mean this sequence: SAGGSAGGMTLEIEVNGKKIKIEVIKDKETNRYFVRITVDGKEVLIEADSKEDALKAIKELLKKSAGGSAGG [r6_715_TrROS_Hall]
4.42

One more sequence: SAGGSAGGSMTIVIPKKTLEKMKPETIKKLLELAKELNTTITMNENAITIPVGKGTEEALKALSAGGSAGGS [r12_945_TrMRF]
1.05

One more sequence: SAGGSSSSMVVVTLTFPPDVSPEEVIEKIAATPGVGAQPISYDPATGTFTIRVGSTDPKAVEEVLGSAGGSA [r2_305_JUSTAS]
0.562

One more sequence: SAGGSAGGPEYQMIPVKNVEIDEFDPNDGNVTIKFKGNGQEIKLPPDGIQSIEISPDQGWIYIRSAGGSAGG [r6_315_TrROS]
-0.365

One more sequence: SAGGSMIVKVTVRVDGKEYERTVEVESLEEALELELPELPEGAEVRIEVVDPETGELIETVTLRVPSAGGSA [r2_390_TrROS_Hall]
2.56

One more sequence: SAKKTITITKITLTLFNKDGKPVATAEITSIEITYDPKTNTFTITATVKVTLPNGKTFTFKLTITLPVKSAG [r14_609_TrROS_Hall]
4.87

One more sequence: SAMTPDELADELAKKFHQQNQENGYEIPDVDIKYDPEEDRVTVEFEMRNKNTGRPMRPTFQIDDPEDILSAG [r14_409_TrROS]
-0.247

One more sequence: SAGGSAGGSAGGVKYLTLTLPDGTVIKVPVDEPVEIRGEDGRPVEIVEAKVTEGPPGLGSAGGSAGGSAGGS [r10_20_JUSTAS]
2.33

One more sequence: SGREEEIAEELREKLLAEGYTEVEVEIEVRPDPNSDNVLVTVTVRATKKDAEGNWKTYEETIPVLIPAEASA [r9_440_JUSTAS]
3.23

One more sequence: SAGGMPGVRPVVTVTVLVKFPGPDETKTVTITMRPEELAAGVTPEAAARRVAEALGHDIEILEIERKSAGGS [r16_554_JUSTAS]
1.86

One more sequence: SAGGSAMPDMTAEELAAEVAKKLPPGEKVLIKIRNKNGETKTFELGEDISDLPADEVTEIEIEVLPSAGGSA [r15_50_TrROS_Hall]
1.05

One more sequence: SAGGSAGGSMTFRVEVFNKKTGKVETIEVEGSLDELKALAPPGALVKIEVDGKTITIPAEELKSAGGSAGGS [r20_36_TrROS_Hall]
1.75

One more sequence: SAGGSAGGSAGPNAVYLGELEVTTRNPDGDRPLRVRVELYLVPTPEGLRLLARVLEVEELSAGGSAGGSAGG [r11_113_TrMRF]
3.64

One more sequence: SAGGSAGGSVIPFPGNSRIYVTEVREDGVKIKFPDIGTEITVPANVPINLVGNPTIGPDGTPYSAGGSAGGS [r20_105_TrMRF]
-0.946

One more sequence: SAGGSAGGSGLPIVVQEDGTLVLRREGDGTAAFDVVPLEEFERLPEEFLESLPASALPDPLPLSAGGSAGGS [r12_793_JUSTAS]
1.41

One more sequence: SAGGSAGGEISFDPETGKLTILAPSSISPDAIKKAIEEAGIPFKITSVSYIPDPKTLKVEYEISSAGGSAGG [r6_395_TrMRF]
0.249

One more sequence: SAGMVTLRVKLKDGRELEIQLASEEEIESLPPGAKVIPIPAESEEEALEAAARLLAEEEGLEIEEVEKVSAG [r5_119_TrROS_Hall]
0.564

One more sequence: SAGGSAGGETITVKVKIKNEDGEEIEVEAEVTKNKDGSYTITIKNKETGETKVVPNATIEEVEPSAGGSAGG [r6_254_TrROS_Hall]
2.19

One more sequence: SAGGSAGGELELELTVRLPNGLEVRIRARVKFDEETNEWTITEIEIEIRPLPPPPVLDKDGKLVSAGGSAGG [r6_506_TrROS_Hall]
3.04

One more sequence: SAGGSAGGSAGLDNIKPEELKKLFPGYKVYLLKVEEVGGKLKVDVKILKYNPSTNTWTPESAGGSAGGSAGG [r11_20_TrMRF]
1.59

One more sequence: SAGGMIELTIVVKTKEEAEKAAEELARKLAEELGVEVTVTSVEVEEVEDPETGETYLVVRVRIEVKPSAGGS [r8_171_TrROS_Hall]
4.12

One more sequence: SAGMPPTTVEVKVTVVKTPEGYEVVAEVVTPDRTETLTIPPHLGLEEAKARLEAVLAERGLTLVDWTLESAG [r5_305_JUSTAS]
2.65

One more sequence: SASPRTITVPVTRFPDGTVRFTIETPDKTITLTFPPSATFEEALEKLSPDPDKKITLVEKDPTTVTVAESAG [r14_404_JUSTAS]
0.852

One more sequence: SAGGSAGGKSYVRLEVYRRNPETDEWEKIRTEVLETDAASGEEVRRRALERVPEDYLVKVELFPSAGGSAGG [r6_623_TrMRF]
2.87

One more sequence: SAGMVKINVAKLPDGKYVITVVDANDGTPLLELPVDSPEGAEKAAKAIAEELKKKYPDATVEVDYTDFESAG [r5_383_TrMRF]
3.49

One more sequence: SAGGMTKTILIYDEETGVLVRIEIKVNPETGEIEEIKIETETLEDGTVKMKITLKDGTEIEVEIKPLPSAGG [r13_515_TrROS_Hall]
3.08

One more sequence: SAGGSAGGSAGSPVSNPEGGTITNTETLPDGKTIVNTQTIDPSKPKTTTSTTVLDPNGNAVSAGGSAGGSAG [r3_433_JUSTAS]
1.55
